Ref: the supplement of paper PMC8728848

Target: Neu5Ac(a2-3)Gal(b1-4)[Fuc(a1-3)]GlcNAc(b1-3)Gal
Experiment: glycan array binding signal (z-score within array); higher = stronger binding
Details: glycan notation: IUPAC condensed, linker removed
Many of the other results were omitted from the sample, so the strongest signals are more common in it than they were.
Recorded endpoint: glycan array binding signal (z-score)
Give bare numbers.

>>> numeric_readout("rCnSL-A (Clitocybe nebularis) (protein) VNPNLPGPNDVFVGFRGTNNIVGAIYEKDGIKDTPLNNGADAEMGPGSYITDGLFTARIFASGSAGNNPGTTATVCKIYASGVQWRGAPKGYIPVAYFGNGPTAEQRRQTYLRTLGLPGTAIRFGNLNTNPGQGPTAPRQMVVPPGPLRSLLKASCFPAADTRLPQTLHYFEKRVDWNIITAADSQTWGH")
-0.229

Attention now shifts to the item below.
Ask: Return the recorded glycan array binding signal (z-score) value; entry: AT3G44510(29) (Arabidopsis thaliana), F4J341 (protein) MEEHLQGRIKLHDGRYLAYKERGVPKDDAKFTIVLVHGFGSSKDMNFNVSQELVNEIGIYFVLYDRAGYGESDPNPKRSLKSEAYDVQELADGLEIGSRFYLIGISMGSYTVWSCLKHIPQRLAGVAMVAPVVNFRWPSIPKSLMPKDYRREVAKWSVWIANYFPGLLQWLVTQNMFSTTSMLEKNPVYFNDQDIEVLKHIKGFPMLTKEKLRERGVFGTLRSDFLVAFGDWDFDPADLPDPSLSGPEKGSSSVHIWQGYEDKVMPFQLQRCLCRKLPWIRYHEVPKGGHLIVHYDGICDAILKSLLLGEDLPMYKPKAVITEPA
Result: -0.706
